tested on: P. aeruginosa MSC17707; test: MIC, agar plate dilution method, P. aeruginosa MSC17707; type: cell-based, Pseudomonas aeruginosa; settings: Pseudomonas aeruginosa, MSC17707, P. aeruginosa MSC17707, AMK-resistant, read-out: minimal inhibitory concentration (MIC)
experimental.endpoint: MIC (µg/mL)
Note: unit µg/mL is implicit; provide only the numeric part.

Please review the entries below; each comes with its answer.
• CNC1C(O[C@H]2OC(CO)[C@@H](N[C@H]3CC[C@@H](N)CC3)[C@H](O)C2O)O[C@H]2CC(N)[C@@H](O[C@@H]3C(N)C[C@@H](N)C(O)[C@H]3O)OC2C1O (stereo partly drawn) = 16
• CNC1C(O[C@H]2OC(CO)[C@@H](NCCN)[C@H](O)C2O)O[C@H]2CC(N)[C@@H](O[C@H]3CC(O)[C@H](N)CC3N)OC2C1O (stereo partly drawn) = 4
• CNC1C(O[C@H]2OC(CO)[C@@H](NC(=O)[C@@H](O)CN)[C@H](O)C2O)O[C@H]2C[C@H](N)[C@@H](O[C@@H]3C(N)C[C@@H](N)C[C@H]3O)OC2C1O (stereo partly drawn) [Compound V1-r, 6-deoxy-5-epi-4″-N-(L-isoseryl)apramycin] = 2
• CNC1C(O[C@H]2OC(CO)[C@@H](NC(=N)N)[C@H](O)C2O)O[C@H]2CC(N)[C@@H](O[C@H]3CC[C@H](N)CC3N)OC2C1O (stereo partly drawn) = 4
• CNC1C(O[C@H]2OC(CO)[C@@H](NC(CN)CN)[C@H](O)C2O)O[C@H]2CC(N)[C@@H](O[C@H]3CC(O)[C@H](N)CC3N)OC2C1O (stereo partly drawn) = 4
• CNC1C(O[C@H]2OC(CO)[C@@H](NC(=O)[C@H](C)N)[C@H](O)C2O)O[C@H]2CC(N)[C@@H](O[C@@H]3C(N)C[C@@H](N)C(O)[C@H]3O)OC2C1O (stereo partly drawn) [Compound V1-k, 4″-N-(L-alanyl)-5-epiapramycin] = 4
• CNC1C(O[C@H]2OC(CO)[C@@H](NCCN)[C@H](O)C2O)O[C@H]2CC(N)[C@@H](O[C@H]3CC[C@H](N)CC3N)OC2C1O (stereo partly drawn) = 8
• CNC1C(O[C@H]2OC(CO)[C@@H](NC(=O)CCN)[C@H](O)C2O)O[C@H]2C[C@H](N)[C@@H](O[C@@H]3C(N)C[C@@H](N)C(O)[C@H]3O)OC2C1O (stereo partly drawn) [Compound V1-m, 4″-N-(β-alanyl)-5-epiapramycin] = 2
• CNCC(=O)N[C@@H]1C(CO)O[C@H](OC2O[C@H]3C[C@H](N)[C@@H](O[C@@H]4C(N)C[C@@H](N)C[C@H]4O)OC3C(O)C2NC)C(O)[C@H]1O (stereo partly drawn) [Compound V1-p, 6-deoxy-5-epi-4″-N-sarcosylapramycin] = 2
• CNC1C(O[C@H]2OC(CO)[C@@H](NC(=O)[C@@H](O)CN)[C@H](O)C2O)O[C@H]2C[C@H](N)[C@@H](O[C@@H]3C(N)C[C@@H](N)C(O)[C@H]3O)OC2C1O (stereo partly drawn) [Compound V1-n, 5-epi-4″-N-(L-isoseryl)apramycin] = 2

--- query ---
Prompt: Identify the measured MIC of CNC1C(O[C@H]2OC(CO)[C@@H](NC)[C@H](O)C2O)O[C@H]2CC(N)[C@@H](O[C@H]3CC(O)[C@H](N)CC3N)OC2C1O (stereo partly drawn) for P. aeruginosa MSC17707.
Response: 4

Provenance of the data: patent US11135234B2
